Where do the numbers come from? From patent US20110002929A1.

Field: IC50. Provide a value for each of the binders that follow.
- measurement_target: T1, human RANK-L (human, UniProt O14788 140-317, limits assumed)
- T1 construct: Soluble protein, used coated, biotinylated or labelled in ELISA, AlphaScreen, FMAT and Biacore; also called hRANK-L; soluble human RANK-L
- T1 sequence (looked up): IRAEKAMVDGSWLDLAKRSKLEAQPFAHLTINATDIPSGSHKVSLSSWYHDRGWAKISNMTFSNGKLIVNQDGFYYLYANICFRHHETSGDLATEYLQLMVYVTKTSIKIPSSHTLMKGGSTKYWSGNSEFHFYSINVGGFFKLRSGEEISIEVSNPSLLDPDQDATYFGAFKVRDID
- test_protocol: AlphaScreen, biotin-hRANK-L / RANK-huFc beads
Report only the number, with the unit pM understood.

Task: For the binder RANKL18hum6Bi_25 (VHH, Bivalent humanized Nanobody; also called RANKL18Hum6-25GS-RANKL18Hum6) EVQLVESGGGLVQPGGSLRLSCAASGRTFSRSAMGWFRQAPGKGREFVGFITGSGGTTYYADSVKGRFTISRDNAQNPVYLQMNSLRPEDTAVYYCAVYRRTYISSTYSESSEYDYWGQGTLVTVSSGGGGSGGGGSGGGGSGGGGSGGGGSEVQLVESGGGLVQPGGSLRLSCAASGRTFSRSAMGWFRQAPGKGREFVGFITGSGGTTYYADSVKGRFTISRDNAQNPVYLQMNSLRPEDTAVYYCAVYRRTYISSTYSESSEYDYWGQGTLVTVSS , what IC50 is on record?
Output: 100

Task: # iterate: RANKL18 (VHH, not shown: small tags and cut ends) VHH: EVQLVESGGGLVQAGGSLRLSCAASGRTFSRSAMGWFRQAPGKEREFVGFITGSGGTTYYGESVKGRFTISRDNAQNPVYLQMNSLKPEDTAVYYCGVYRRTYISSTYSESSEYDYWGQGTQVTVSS
Output: 253

Task: # iterate: RANKL133 (VHH, Bivalent Nanobody; also called RANKL13-30GS-RANKL13) EVQLVESGGGLVQAGGSLRLSCAASGRTFRSYPMGWFRQAPGKEREFVASITGSGGSTYYADSVKGRFTISRDNAKNTVYLQMNSLRPEDTAVYSCAAYIRPDTYLSRDYRKYDYWGQGTQVTVSSGGGGSGGGGSGGGGSGGGGSGGGGSGGGGSEVQLVESGGGLVQAGGSLRLSCAASGRTFRSYPMGWFRQAPGKEREFVASITGSGGSTYYADSVKGRFTISRDNAKNTVYLQMNSLRPEDTAVYSCAAYIRPDTYLSRDYRKYDYWGQGTQVTVS
Output: 26

Task: # iterate: RANKL183biv (VHH, Bivalent Nanobody; also called RANKL18-30GS-RANKL18) EVQLVESGGGLVQAGGSLRLSCAASGRTFSRSAMGWFRQAPGKEREFVGFITGSGGTTYYGESVKGRFTISRDNAQNPVYLQMNSLKPEDTAVYYCGVYRRTYISSTYSESSEYDYWGQGTQVTVSSGGGGSGGGGSGGGGSGGGGSGGGGSGGGGSEVQLVESGGGLVQAGGSLRLSCAASGRTFSRSAMGWFRQAPGKEREFVGFITGSGGTTYYGESVKGRFTISRDNAQNPVYLQMNSLKPEDTAVYYCGVYRRTYISSTYSESSEYDYWGQGTQVTVSS
Output: 49

Task: # iterate: RANKL18hum6Bi_30 (VHH, Bivalent humanized Nanobody; also called RANKL18Hum6-30GS-RANKL18Hum6) EVQLVESGGGLVQPGGSLRLSCAASGRTFSRSAMGWFRQAPGKGREFVGFITGSGGTTYYADSVKGRFTISRDNAQNPVYLQMNSLRPEDTAVYYCAVYRRTYISSTYSESSEYDYWGQGTLVTVSSGGGGSGGGGSGGGGSGGGGSGGGGSGGGGSEVQLVESGGGLVQPGGSLRLSCAASGRTFSRSAMGWFRQAPGKGREFVGFITGSGGTTYYADSVKGRFTISRDNAQNPVYLQMNSLRPEDTAVYYCAVYRRTYISSTYSESSEYDYWGQGTLVTVSS
Output: 50

Task: # iterate: RANKL94biv (VHH, Bivalent Nanobody; also called RANKL9-15GS-RANKL9) EVQLVESGGGLVQAGGSLRLTCAASGRTFRSYAMGWFRQAPGKEREFVAAINYSGGSTNYADSVKGRFTISRDNAKNTLYLQMNSLEPEDTAVYYCAAGSGYASLSYYSTERAYTYWGQGTQVTVSSGGGGSGGGGSGGGGSEVQLVESGGGLVQAGGSLRLTCAASGRTFRSYAMGWFRQAPGKEREFVAAINYSGGSTNYADSVKGRFTISRDNAKNTLYLQMNSLEPEDTAVYYCAAGSGYASLSYYSTERAYTYWGQGTQVTVSS
Output: 72

Task: # iterate: RANKL91biv (VHH, Bivalent Nanobody; also called RANKL9-9GS-RANKL9) EVQLVESGGGLVQAGGSLRLTCAASGRTFRSYAMGWFRQAPGKEREFVAAINYSGGSTNYADSVKGRFTISRDNAKNTLYLQMNSLEPEDTAVYYCAAGSGYASLSYYSTERAYTYWGQGTQVTVSSGGGGSGGGSEVQLVESGGGLVQAGGSLRLTCAASGRTFRSYAMGWFRQAPGKEREFVAAINYSGGSTNYADSVKGRFTISRDNAKNTLYLQMNSLEPEDTAVYYCAAGSGYASLSYYSTERAYTYWGQGTQVTVSS
Output: 153
